Hey, just so you know, these numbers are from the RepoRT retention time repository (doi:10.1016/j.foodchem.2018.11.056).

# Run description: RP, Thermo Scientific Hypersil GOLD aQ, 100 × 2.1 mm, 1.9 µm, 30 °C, 0.3 mL/min, estimated dead time 0.73 min; A: water + 0.1% formic acid; B: methanol + 0.1% formic acid + 4 mM ammonium formate; gradient (min/%B) 0/0 1/0 8/100 10/100
# Setup conditions: stereoisomer not certain
Outcome: 1 (yes) for LC retention time of at least 6 min; 0 (no) for anything lower.

>>> df
                                   compound    class
0  CCCCC(C)C(OC(=O)CC(CC(=O)O)C(=O)O)C(CC(C)CC(O)CCCCC(O)CC(O)C(C)N)OC(=O)CC(CC(=O)O)C(=O)O (stereo not given)  1 (yes)

hey, is LC retention time for this one >= 6 min? "Cc1cc(O)cc2oc(=O)c3c(O)cc(O)cc3c12"
1 (yes)

hey, is LC retention time for this one >= 6 min? CC1Cc2ccc(C(=O)NC(Cc3ccccc3)C(=O)O)c(O)c2C(=O)O1 (stereo not given)
1 (yes)

hey, is LC retention time for this one >= 6 min? "O=c1cc(CO)occ1O"
0 (no)

hey, is LC retention time for this one >= 6 min? COc1cc2c(c3oc(=O)c4c(c13)CCC4=O)C1C=COC1O2 (stereo not given)
1 (yes)

hey, is LC retention time for this one >= 6 min? CC1=CC2OC3C(O)C(O)C(C)(C34CO4)C2(CO)C(O)C1=O (stereo not given)
0 (no)

hey, is LC retention time for this one >= 6 min? COC1C(OC(=O)C=CC=CC=CC=CC(=O)O)CCC2(CO2)C1C1(C)OC1CC=C(C)C (stereo not given)
1 (yes)

hey, is LC retention time for this one >= 6 min? CC1CCC2C(C)(C)C(O)CCC2(C)C12Cc1c(O)cc3c(c1O2)CNC3=O (stereo not given)
1 (yes)

hey, is LC retention time for this one >= 6 min? CC(=O)OCC12CC(OC(=O)CC(C)C)C(C)=CC1OC1C(O)C(O)C2(C)C12CO2 (stereo not given)
1 (yes)

hey, is LC retention time for this one >= 6 min? CC(C)CC1NC(=O)C(C)N(C)C(=O)CNC(=O)C(=Cc2ccccc2)N(C)C1=O (stereo not given)
1 (yes)

hey, is LC retention time for this one >= 6 min? CCCCC(C)C(OC(=O)CC(CC(=O)O)C(=O)O)C(CC(C)CC(O)CCCCCCC(O)C(C)N)OC(=O)CC(CC(=O)O)C(=O)O (stereo not given)
1 (yes)

hey, is LC retention time for this one >= 6 min? C=C1C2OC3C=C(C)C(=O)C(O)C3(CO)C1(C)CC2O (stereo not given)
0 (no)

hey, is LC retention time for this one >= 6 min? CC1=CC2OC3C(O)C(O)C(C)(C2(CO)CC1O)C31CO1 (stereo not given)
0 (no)

hey, is LC retention time for this one >= 6 min? COc1ccc2c3c4n(c2c1)C(C=C(C)C)OOC(C)(C)CC4N1C(=O)C2CCCN2C(=O)C1(O)C3O (stereo not given)
1 (yes)

hey, is LC retention time for this one >= 6 min? "COc1c(C)c2c(c(O)c1CC=C(C)CCC(=O)O)C(=O)OC2"
1 (yes)

hey, is LC retention time for this one >= 6 min? CN1C(=O)C23CC4=CC=CC(O)C4N2C(=O)C1(CO)SS3 (stereo not given)
0 (no)

hey, is LC retention time for this one >= 6 min? CC(C)(O)C1OC2CCC3(C)C(O)(CCC4Cc5c([nH]c6ccccc56)C43C)C2=CC1=O (stereo not given)
1 (yes)

hey, is LC retention time for this one >= 6 min? CC1CCCC(O)CCCCCc2cc(O)cc(O)c2C(=O)O1 (stereo not given)
1 (yes)
